Taken from ChEMBL document CHEMBL4002606.

inhibition of growth at 5 µM values, listed per item
system: HL-60; experiment: Growth inhibition of human HL60 cells at 5 uM after 48 hrs by MTT assay relative to control; assay type: functional; details: HL-60, 48 h, read-out: GI
reported.property: inhibition of growth at 5 µM (%)

>>> measured_number("C[C@H]1[C@H](C)CC[C@]2(C(=O)O)CC[C@]3(C)C(=CC[C@@H]4[C@@]5(C)Cc6c[nH]nc6C(C)(C)[C@@H]5CC[C@]43C)[C@H]12")
16.3
>>> measured_number("C[C@H]1[C@H](C)CC[C@]2(C(=O)N(CCO)CCO)CC[C@]3(C)C(=CC[C@@H]4[C@@]5(C)Cc6cn[nH]c6C(C)(C)[C@@H]5CC[C@]43C)[C@H]12")
64.8
>>> measured_number("CC(=O)NN/C=C1/C[C@]2(C)[C@H]3CC=C4[C@@H]5[C@@H](C)[C@H](C)CC[C@]5(C(=O)O)CC[C@@]4(C)[C@]3(C)CC[C@H]2C(C)(C)C1=O")
41.7

* * *

system: HL-60; assay: Growth inhibition of human HL60 cells at 5 uM after 48 hrs by MTT assay relative to control; assay type: functional; details: HL-60, 48 h, read-out: GI
Classification field: condition met = inhibition of growth at 5 µM at or over 80%; condition not met = inhibition of growth at 5 µM under 80%.

>>> assigned_category("C=CCNc1nc2c(s1)C[C@]1(C)[C@H]3CC=C4[C@@H]5[C@@H](C)[C@H](C)CC[C@]5(C(=O)O)CC[C@@]4(C)[C@]3(C)CC[C@H]1C2(C)C")
"condition not met"
>>> assigned_category("C[C@H]1[C@H](C)CC[C@]2(C(=O)N3CCNCC3)CC[C@]3(C)C(=CC[C@@H]4[C@@]5(C)Cc6cn[nH]c6C(C)(C)[C@@H]5CC[C@]43C)[C@H]12")
"condition met"
>>> assigned_category("C[C@H]1[C@H](C)CC[C@]2(C(=O)O)CC[C@]3(C)C(=CC[C@@H]4[C@@]5(C)C/C(=C/O)C(=O)C(C)(C)[C@@H]5CC[C@]43C)[C@H]12")
"condition not met"
>>> assigned_category("C[C@H]1[C@H](C)CC[C@]2(C(=O)N(CCO)CCO)CC[C@]3(C)C(=CC[C@@H]4[C@@]5(C)CCC(=O)C(C)(C)[C@@H]5CC[C@]43C)[C@H]12")
"condition not met"
>>> assigned_category("COc1cccc2c1C(=O)c1c(O)c3c(c(O)c1C2=O)C[C@@](O)(C(=O)CO)C[C@@H]3O[C@H]1C[C@H](N)[C@H](O)[C@H](C)O1")
"condition met"

* * *

tested on: HL-60; test: Growth inhibition of human HL60 cells at 2.5 uM after 48 hrs by MTT assay relative to control; format: functional; settings: HL-60, 48 h, read-out: GI
Returns TRUE if the recorded inhibition of growth at 2.5 µM is greater than or equal to 10%, and FALSE otherwise.

>>> assigned_category("C[C@H]1[C@H](C)CC[C@]2(C(=O)N(CCO)CCO)CC[C@]3(C)C(=CC[C@@H]4[C@@]5(C)CCC(=O)C(C)(C)[C@@H]5CC[C@]43C)[C@H]12")
"TRUE"
>>> assigned_category("C[C@H]1[C@H](C)CC[C@]2(C(=O)O)CC[C@]3(C)C(=CC[C@@H]4[C@@]5(C)Cc6c[nH]nc6C(C)(C)[C@@H]5CC[C@]43C)[C@H]12")
"FALSE"
>>> assigned_category("C=CCNc1nc2c(s1)C[C@]1(C)[C@H]3CC=C4[C@@H]5[C@@H](C)[C@H](C)CC[C@]5(C(=O)O)CC[C@@]4(C)[C@]3(C)CC[C@H]1C2(C)C")
"FALSE"
>>> assigned_category("COc1cccc2c1C(=O)c1c(O)c3c(c(O)c1C2=O)C[C@@](O)(C(=O)CO)C[C@@H]3O[C@H]1C[C@H](N)[C@H](O)[C@H](C)O1 [DOXORUBICIN]")
"TRUE"
>>> assigned_category("C[C@H]1[C@H](C)CC[C@]2(C(=O)N3CCNCC3)CC[C@]3(C)C(=CC[C@@H]4[C@@]5(C)Cc6cn[nH]c6C(C)(C)[C@@H]5CC[C@]43C)[C@H]12")
"TRUE"
>>> assigned_category("C[C@H]1[C@H](C)CC[C@]2(C(=O)N(CCO)CCO)CC[C@]3(C)C(=CC[C@@H]4[C@@]5(C)Cc6cn[nH]c6C(C)(C)[C@@H]5CC[C@]43C)[C@H]12")
"TRUE"
